Tested on: SF-268 CNS
Assay: NCI-60 one-dose screen, 48 h (100 = growth as untreated, 0 = no growth, -100 = all killed)
Conditions: 10 µM unless noted
About 83,000 compounds went through this panel and 20% of them were active in at least one assay; those are over-represented in the sample as a whole.

# Molecule, Reading Unit, growth
measured = [
    ("CCC(=O)OC1=C(C)SC2=NC(c3ccc(Cl)c(Cl)c3)=CC(c3cc(OC)c(OC)c(OC)c3)N21 (stereo unspecified)", "%", 102),
    ("N#Cc1cnn2c(-c3ccc(Cl)cc3)nc(NCCc3ccccc3)nc12", "%", 92.2),
    ("Cc1cc(-c2ccc(N(C)C)cc2)c2sc(=O)[nH]c2n1", "%", 69.5),
    ("N#C/C(=C\\c1ccc(Br)cc1)n1nnc2cc(Cl)c(Cl)cc21", "%", 59.2),
    ("NC(=O)c1c(NC(=O)c2ccc(C(F)(F)F)cc2Cl)sc2c1CCC(=O)C2", "%", -2.06),
    ("CS(=O)(=O)c1ccc(-c2nc3cc(Cl)ccc3n2CC(=O)NO)cc1", "%", 89.2),
    ("CCOC(=O)c1sc(-c2ccc(OS(=O)(=O)c3ccc(C(C)(C)C)cc3)c(C=O)c2)nc1C", "%", 32.9),
    ("CC(C)CCC[C@@H](C)[C@H]1CCC2C3=CCn4c(=O)ccc(=O)n4C3CC[C@@]21C (stereo partly specified)", "%", -91.6),
    ("COC(=O)c1ccc2oc(NC(=O)c3ccc(N4CCOCC4)c([N+](=O)[O-])c3)nc2c1", "%", 97.4),
    ("COc1cc2c(cc1OC)-c1ccc3cc4c(cc3c1N(CCN1CCCC1)C2)OCO4", "%", 20.1),
    ("CNCCNc1nc2ccccc2c2c(=O)c3cc(F)ccc3oc12", "%", 58.2),
    ("N=c1ccn2c(n1)OC1C(O)C(CO)OC12 (stereo unspecified)", "%", 40.9),
    ("CCCCCCCCCCCCCCCCCC1=NCCN1C(=O)OCCO", "%", 31.4),
    ("C[C@@H]1C(=O)N(C[C@H](Cc2ccccc2)N(Cc2ccccc2)Cc2ccccc2)[C@]1(Cc1ccccc1)C(=O)OC(C)(C)C", "%", 69.8),
    ("COc1ccccc1C(=O)NC(=S)Nc1ccc(-c2nc3ccccc3[nH]2)cc1", "%", 49.2),
    ("Cc1ccc(Nc2ccc(Nc3ccc(C)cc3S(=O)(=O)O)c3c2C(=O)c2ccccc2C3=O)c(S(=O)(=O)O)c1", "%", 103),
    ("Cl.[Pt].[c-]1ccccc1-c1ccccn1.c1ccc(P(c2ccccc2)C([PH+](c2ccccc2)c2ccccc2)[PH+](c2ccccc2)c2ccccc2)cc1", "%", 27.6),
    ("CC1(C)C(=O)/C(=C\\c2cccnc2)C[C@]2(C)[C@H]3CC=C4[C@@H]5C[C@@](C)(C(=O)O)CC[C@]5(C)CC[C@@]4(C)[C@]3(C)CC[C@@H]12", "%", 98.9),
    ("O=C1c2ccccc2C2(c3ccc(O)cc3)c3ccccc3Oc3cccc1c32 (stereo unspecified)", "%", 40.3),
    ("O=S(=O)(NCCNc1cc(-c2c(-c3cccc(O)c3)nc3sccn23)ccn1)c1ccc(Br)cc1", "%", 41.3),
    ("CC12CC(C#N)CCC1O2 (stereo unspecified)", "%", 110),
    ("NC(N)=N/N=C(/c1ccccc1)c1ccc(N)cc1", "%", 115),
    ("C=C1C(=O)O[C@H]2[C@H]1CC/C(Cn1cc(CNCCc3c[nH]c4ccc(Cl)cc34)nn1)=C\\CC[C@@]1(C)O[C@@H]21", "%", 77.9),
    ("COc1cc(/C=C/C(=O)c2ccc(Nc3nc(Nc4ccccc4)nc(Nc4ccc(Cl)cc4)n3)cc2)cc(OC)c1OC", "%", 73.2),
    ("CCCCS(=O)(=O)Oc1ccc(-c2nc(C)c(C(=O)OCC)s2)cc1C=O", "%", 79.3),
    ("COc1ccc(C2=NC(=O)NC2c2ccc(OC)cc2)cc1 (stereo unspecified)", "%", 73.3),
    ("CCOC(=O)Cc1csc2nc(-c3ccccc3)nn12", "%", 105),
    ("N#Cc1cccc(-c2nc3ccccn3c2NCCN2CCOCC2)c1", "%", 90.3),
    ("COc1cc2c(cc1OC)-c1ccc3cc4c(cc3c1N(CCCN(C)C)C2)OCO4", "%", 34),
    ("O=C1CC(c2ccc3c(c2)OCO3)Nc2cc3c(cc21)OCO3 (stereo unspecified)", "%", 44),
    ("N#Cc1c(NC(=O)c2ccc(Br)cc2)sc2c1CCCC2", "%", 61.7),
    ("CCCCCCCC/C=C\\CCCCCCCC(=O)Oc1cccc2cccnc12", "%", 90.8),
    ("O=S(=O)(Cc1ccccc1)c1nc2ccccc2s1", "%", 79),
    ("COc1ccc(N=c2nc3sc4cc(Cl)ccc4n3c(N)c2C#N)cc1", "%", 60.1),
    ("COc1cc2nc(Nc3ccc(F)cc3)nc(N)c2cc1OC", "%", 90),
    ("Clc1ccc(-c2nnc(-c3ccco3)o2)cc1", "%", 101),
    ("O=C1CCC(N2C(=O)c3cccc(NCCCC4CCN(CCNC(=O)c5cc6c(o5)C(=O)c5ccccc5C6=O)CC4)c3C2=O)C(=O)N1 (stereo unspecified)", "%", -32.7),
    ("Cc1ccc(/C(=N\\N=C(N)N)c2ccccc2)cc1", "%", 36.1),
    ("Cn1nnnc1-c1ccc(N)cc1", "%", 91.7),
    ("COc1ccc(/C=C2\\COc3ccc(O)cc3C2=O)c(OC)c1", "%", 70.2),
    ("O=C1c2ccccc2C(=O)c2cc(Cn3cc[n+](Cc4ccc5ccccc5c4)c3)ccc21", "%", 72.5),
]
